Study system: T1, Fusion protein of LAG-3 extracellular region and hIgG1 Fc (human)
T1 construct: Limits of the signal peptide are marked only by lost underlining; also called LAG-3-Fc; LAG-3-Fc fusion protein
T1 sequence (chain, as listed by the source limits assumed): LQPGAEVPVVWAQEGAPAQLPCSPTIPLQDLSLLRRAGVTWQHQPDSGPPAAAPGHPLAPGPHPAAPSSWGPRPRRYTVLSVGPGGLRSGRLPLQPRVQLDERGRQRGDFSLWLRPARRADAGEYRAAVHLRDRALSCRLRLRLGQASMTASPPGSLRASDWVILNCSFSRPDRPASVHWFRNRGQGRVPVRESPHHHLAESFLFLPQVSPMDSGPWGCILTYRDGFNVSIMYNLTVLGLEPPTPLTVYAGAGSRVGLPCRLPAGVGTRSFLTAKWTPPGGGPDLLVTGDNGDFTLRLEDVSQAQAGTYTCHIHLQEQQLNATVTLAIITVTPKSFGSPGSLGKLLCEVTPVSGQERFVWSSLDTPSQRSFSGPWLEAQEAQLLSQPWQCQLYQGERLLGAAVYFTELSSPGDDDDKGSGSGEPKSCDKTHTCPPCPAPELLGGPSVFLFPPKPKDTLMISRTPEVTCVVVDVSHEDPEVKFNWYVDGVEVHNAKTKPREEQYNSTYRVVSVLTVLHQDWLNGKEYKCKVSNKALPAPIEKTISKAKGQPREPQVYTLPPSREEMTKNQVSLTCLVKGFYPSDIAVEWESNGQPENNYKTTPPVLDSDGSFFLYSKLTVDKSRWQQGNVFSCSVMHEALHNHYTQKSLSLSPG
Test method notes: competition: biotin-LAG-3-Fc binding to fixed Daudi cells, antibody titrated
Listed here are binders together with their documented pIC50.
To interpret pIC50, take it as minus log10 of a concentration measured in moles per litre.

// pIC50 lookup, key: mAb229 (antibody, V domains shown, Murine hybridoma antibody; also called LAG-3 antibody mAb229; hybridoma clone mAb229) VH: QIQLVQSGPELKKPGETVKISCKASGYTFTTSGMSWVKQAPGKGLKWMGWINTYSGVPTYADDFKGRFAFSLETSASTAYLQINNLKNEDTATYFCARDNYDARDVYYYAMDYWGQGTSVTVSS VL: DIQMTQSPASLSVSVGETVTITCRASENIYSNLAWYQQKQGKSPQLLVYAATNLADGVPSRFSGSGSGTQYSLKINSLQSEDFGSYYCQHFWITPWTFGGGTKLEIK 8.88

pIC50 lookup needed for Hu303-012 (antibody, human IgG4 S228P, kappa, V domains shown, Humanized mAb303) VH: QVQLVQSGAEVKKPGASVKVSCKASGYTFTDYYMNWVRQAPGQRLEWMGVINPYNGDTAYNQKFKGRVTITVDKSASTAYMELSSLRSEDTAVYYCTRDDGYYDYYFDVWGQGTTVTVSS VL: DIQMTQSPSSLSASVGDRVTITCRASQDIGSRLNWLQQKPGKAFKRLIYATSTLDSGVPKRFSGSRSGTDFTLTISSLQPEDFATYYCLQLASSPPTFGGGTKVEIKR , thanks. 9.44
